Values from PubChem BioAssay

METHOD_SUMMARY: compounds altering in vitro BBB leakiness – cell-based, FITC-avidin fluorescence, HTS, primary screen (AID 1963498); note: test concentration not given here
SETUP_CONDITIONS: brain endothelial barrier, actives lie on both sides
Activity calls are given as the source filed them. Cut-off read from the data, not from the text of the source: active = fold change permeability below about 0.7 or above about 1.3; inactive = in between.
Hello, when you answer, please use one of the following outcomes: 1 for active, 0 for inactive

Query: # outcome recorded in this test, key = O=C(O)c1cccnc1C(=O)O
Result: 0

Query: # outcome recorded in this test, key = Fc1ccc(CN(C2=NCCN2)c2c(Cl)cccc2Cl)cc1
Result: 0

Query: # outcome recorded in this test, key = N[C@H](C(=O)O)c1cc(O)cc(O)c1
Result: 0

Query: # outcome recorded in this test, key = CCOC(=O)C1=C[C@@H](OC(CC)CC)[C@H](NC(C)=O)[C@@H](N)C1
Result: 0

Query: # outcome recorded in this test, key = CC(=O)c1ccc(S(=O)(=O)NC(=O)NC2CCCCC2)cc1
Result: 0

Query: # outcome recorded in this test, key = CC(C)Cc1ccc([C@H](C)C(=O)O)cc1
Result: 1

###

METHOD_SUMMARY: compounds altering in vitro BBB leakiness – cell-based, FITC-avidin fluorescence, HTS, primary screen (AID 1963498); note: test concentration not given here
SETUP_CONDITIONS: brain endothelial barrier, actives lie on both sides
Please use Criterion met for fold change permeability under 1 and Criterion not met for everything else, ties included.

Query: Is fold change permeability of O=C1N(c2ccccc2)c2ccccc2C1(Cc1ccncc1)Cc1ccncc1 strictly below 1?
Result: Criterion met

Query: Is fold change permeability of NCCCCCCCCCCN strictly below 1?
Result: Criterion met

Query: Is fold change permeability of COc1cc2ncnc(Nc3cccc(Br)c3)c2cc1OC strictly below 1?
Result: Criterion not met

Query: Is fold change permeability of CC(C)[C@H]1C(=O)N[C@@H](CCCN=C(N)N)C(=O)NCC(=O)N[C@@H](CC(=O)O)C(=O)N[C@H](Cc2ccccc2)C(=O)N1C strictly below 1?
Result: Criterion not met

Query: Is fold change permeability of COc1ccc(OCC2c3cc(OC)c(OC)cc3CCN2C(=O)c2cccc(Cl)c2)cc1 (stereo not given) strictly below 1?
Result: Criterion not met

Query: Is fold change permeability of COc1ccc(-c2ccc(N)[n+](CCCC(=O)O)n2)cc1 strictly below 1?
Result: Criterion met

Query: Is fold change permeability of COCCOC(=O)C1=C(C)NC(C)=C(C(=O)OC(C)C)C1c1cccc([N+](=O)[O-])c1 (stereo not given) strictly below 1?
Result: Criterion met

Query: Is fold change permeability of O=c1oc(Cl)c(Cl)c2ccccc12 strictly below 1?
Result: Criterion not met

Query: Is fold change permeability of CCOC(=O)C1=C(C)NC(C)=C(C(=O)OC)C1c1cccc(Cl)c1Cl (stereo not given) strictly below 1?
Result: Criterion not met

###

METHOD_SUMMARY: compounds altering in vitro BBB leakiness – cell-based, FITC-avidin fluorescence, HTS, primary screen (AID 1963498); note: test concentration not given here
SETUP_CONDITIONS: brain endothelial barrier, actives lie on both sides
Give 1.0 when the value for fold change permeability is at least 1. Give 0.0 when it is less.

Query: Evaluate CCCCCC[C@@H]([C@@H](C)O)n1cnc2c(N)ncnc21 : fold change permeability at minimum 1?
Result: 0.0

Query: Evaluate CN1C2CCC1CC(OC(c1ccccc1)c1ccccc1)C2 (stereo unspecified) : fold change permeability at minimum 1?
Result: 1.0

Query: Evaluate N[C@@H](CC(=O)N1CCN(C(c2ccc(F)cc2)c2ccc(F)cc2)CC1)C(=O)N1Cc2ccccc2C1 : fold change permeability at minimum 1?
Result: 1.0

Query: Evaluate CCN(CC)S(=O)(=O)Nc1cccc(-c2ccc3c(NC(=O)C4CC4)n[nH]c3c2)c1 : fold change permeability at minimum 1?
Result: 1.0

Query: Evaluate CC(C(=O)O)c1ccc(C(=O)c2cccs2)cc1 (stereo unspecified) : fold change permeability at minimum 1?
Result: 0.0

Query: Evaluate CCCC(CCC)C(=O)OC1CC2CCC(C1)[N+]2(C)C (stereo unspecified) : fold change permeability at minimum 1?
Result: 0.0

Query: Evaluate COc1ccc(-c2csc(NC(=O)[C@H]3CCCCN3S(=O)(=O)c3ccc(C)cc3)n2)cc1 : fold change permeability at minimum 1?
Result: 0.0

Query: Evaluate OCCN1CCN(CCCN2c3ccccc3C=Cc3ccccc32)CC1 : fold change permeability at minimum 1?
Result: 1.0

Query: Evaluate Oc1cc2c(c(Cl)c1O)CCNCC2c1ccccc1 (stereo unspecified) : fold change permeability at minimum 1?
Result: 1.0

Query: Evaluate O=C(O)c1ccc(-c2ccc(/C=C3\SC(=S)N(Cc4ccccc4)C3=O)o2)cc1 : fold change permeability at minimum 1?
Result: 1.0

Query: Evaluate N=S(=O)(O)Cc1noc2ccccc12 : fold change permeability at minimum 1?
Result: 1.0

Query: Evaluate O=CN(O)CCCP(=O)(O)O : fold change permeability at minimum 1?
Result: 1.0

Query: Evaluate Clc1ccc(N2CCN(Cc3c[nH]c4ncccc34)CC2)cc1 : fold change permeability at minimum 1?
Result: 1.0

Query: Evaluate COc1cc(C[C@H](C)[C@H](C)Cc2ccc3c(c2)OCO3)ccc1O : fold change permeability at minimum 1?
Result: 1.0

Query: Evaluate Cc1ccc(S(=O)(=O)/C=C/C#N)cc1 : fold change permeability at minimum 1?
Result: 1.0

Query: Evaluate O=C1c2cccc3c2[C@H](CCC3)CN1[C@@H]1CN2CCC1CC2 : fold change permeability at minimum 1?
Result: 1.0

Query: Evaluate COc1ccc(-c2cc3ncc(C)n3c(Nc3ncccc3C(N)=O)n2)cc1OC : fold change permeability at minimum 1?
Result: 1.0

Query: Evaluate N#CC(C#N)=C(N)/C(C#N)=C/c1cc(O)c(O)c(O)c1 : fold change permeability at minimum 1?
Result: 1.0

Query: Evaluate CCCCCCCCCCCCCCCC(=O)OC(CC(=O)O)C[N+](C)(C)C (stereo unspecified) : fold change permeability at minimum 1?
Result: 1.0

Query: Evaluate Cc1cc(NC2CCCCC2)nc(-n2nc(C)cc2C)n1 : fold change permeability at minimum 1?
Result: 1.0

Query: Evaluate CN(C)c1ccc(/C=C2\C(=O)Nc3ccccc32)cc1 : fold change permeability at minimum 1?
Result: 1.0

Query: Evaluate OCCN1CCN(CC/C=C2/c3ccccc3Sc3ccc(C(F)(F)F)cc32)CC1 : fold change permeability at minimum 1?
Result: 1.0

Query: Evaluate Cc1cc(C)cc(NC(=O)CN(c2cc([N+](=O)[O-])ccc2C)S(C)(=O)=O)c1 : fold change permeability at minimum 1?
Result: 1.0

Query: Evaluate Cc1ccc(C(=O)N(CCCN)C(c2oc3cc(Cl)ccc3c(=O)c2Cc2ccccc2)C(C)C)cc1 (stereo unspecified) : fold change permeability at minimum 1?
Result: 1.0

Query: Evaluate C=C(C)C1CC=C(C(=O)O)CC1 (stereo unspecified) : fold change permeability at minimum 1?
Result: 0.0

Query: Evaluate N=c1nc(N2CCCCC2)cc(N)n1O : fold change permeability at minimum 1?
Result: 0.0

Query: Evaluate Nc1nc(N)c2nc(-c3ccccc3)c(N)nc2n1 : fold change permeability at minimum 1?
Result: 1.0

Query: Evaluate CCCCS(=N)(=O)CCC(N)C(=O)O (stereo unspecified) : fold change permeability at minimum 1?
Result: 1.0

Query: Evaluate CNCCCC12CCC(c3ccccc31)c1ccccc12 : fold change permeability at minimum 1?
Result: 0.0

Query: Evaluate CCCC1O[C@@H]2C[C@H]3[C@@H]4CCC5=CC(=O)C=C[C@]5(C)[C@H]4[C@@H](O)C[C@]3(C)[C@]2(C(=O)CO)O1 (stereo partly specified) : fold change permeability at minimum 1?
Result: 1.0

Query: Evaluate CCN1CCC[C@H]1CNC(=O)c1cc(S(N)(=O)=O)ccc1OC : fold change permeability at minimum 1?
Result: 0.0

Query: Evaluate O=C1Cc2c([nH]c3ccc(Br)cc23)-c2ccccc2N1 : fold change permeability at minimum 1?
Result: 0.0

Query: Evaluate Cc1cc(C(C)(C)C)cc(C)c1CC1=NCCN1 : fold change permeability at minimum 1?
Result: 1.0

Query: Evaluate NCCSSCCN : fold change permeability at minimum 1?
Result: 0.0

Query: Evaluate Clc1ccccc1C(c1ccccc1)(c1ccccc1)n1ccnc1 : fold change permeability at minimum 1?
Result: 1.0

Query: Evaluate CCCCCCCCCCCCCCSCC(=O)O : fold change permeability at minimum 1?
Result: 1.0

Query: Evaluate Cn1ccc2cc(NC(=O)Nc3cccnc3)ccc21 : fold change permeability at minimum 1?
Result: 1.0

Query: Evaluate Nc1ncn([C@@H]2O[C@H](CO)[C@@H](O)[C@H]2O)c(=O)n1 : fold change permeability at minimum 1?
Result: 1.0

Query: Evaluate NC(=O)C(c1ccccc1)(c1ccccc1)[C@@H]1CCN(CCc2ccc3c(c2)CCO3)C1 : fold change permeability at minimum 1?
Result: 0.0

Query: Evaluate CNC(=O)c1cc2c(cn1)[nH]c1ccccc12 : fold change permeability at minimum 1?
Result: 0.0

Query: Evaluate Cc1cc(N2C[C@@H](C)N[C@@H](C)C2)ncc1-c1ccc(-c2nc3c(ccn3C)c(=O)[nH]2)cc1 : fold change permeability at minimum 1?
Result: 1.0

Query: Evaluate CN1CCN(C2=Nc3ccccc3Cc3ccccc32)CC1 : fold change permeability at minimum 1?
Result: 1.0
